Tested on: T98G
Experiment: MTT cell viability/proliferation assay, T98G
Format: cell-based, human
Conditions: Homo sapiens, T98G, 48 h, read-out: T98G IC50
pIC50: −log10 of the molar value.
Output T for pIC50 not less than 5; output F otherwise.

In [3]: df
Out[3]:
                                   compound  label_value
0  O=c1[nH]c(=O)n([C@H]2C[C@H](O)[C@@H](CO)O2)cc1F [Compound 5-FdU, 5-fluoro-2′-deoxyuridine, reference compound]            T
1  CCOP(=O)(OCC)C(Cc1c(F)c(F)c(F)c(F)c1F)Nc1ccccc1 (stereo not drawn)            F
2  CCOP(=O)(OCC)C(Cc1c(F)c(F)c(Sc2cccc(OC)c2)c(F)c1F)Nc1ccccc1 (stereo not drawn)            F
3  CCOP(=O)(OCC)C(Cc1c(F)c(F)c(SCC(NC(C)=O)C(=O)OC)c(F)c1F)Nc1ccccc1 (stereo not drawn)            F
4  CCOP(=O)(OCC)C(Cc1c(F)c(F)c(Oc2ccc(Cl)cc2)c(F)c1F)Nc1ccccc1 (stereo not drawn)            F
5  CCOP(=O)(OCC)C(Cc1c(F)c(F)c(Sc2cccc(N)c2)c(F)c1F)Nc1ccccc1 (stereo not drawn)            F
